Sourced from ChEMBL document CHEMBL4689842

Test system: HEK-293T
ASSAY METHOD TEXT: Multiplex assay against HEK293T;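 as to Population Tubulin-Different-Phenotype (%): share of the cells with healthy nuclei that show this phenotype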
Assay type: toxicity, cell-based
ASSAY CONDITIONS: human, 24 h, 10 µM, compound concentration 10 uM, replicate 1
Binned Population Tubulin-Different-Phenotype (%); ranges: LOW (below 60%), MEDIUM (60% to below 90%), HIGH (90% or more)

Would you please look over these solved cases?
COc1ncc(-c2ccc3nccc(-c4ccnnc4)c3c2)cc1NS(=O)(=O)c1ccc(F)cc1F: LOW
O=C1NCN(c2ccccc2)C12CCN(CCCOc1ccc(F)cc1)CC2 [SPIRAMIDE]: HIGH
Cl.N#Cc1ccc2[nH]cc(CCCCN3CCN(c4ccc5oc(C(N)=O)cc5c4)CC3)c2c1 [VILAZODONE HYDROCHLORIDE]: HIGH
OC1(c2ccc(Cl)cc2)CCN(Cc2c[nH]c3ccccc23)CC1: HIGH
COc1ccc(Oc2cc(NCCC(F)(F)F)c3ncc(-c4ccc(C(=O)NC5CC5)c(C)c4)n3n2)c(F)c1F: MEDIUM

Q: Bin this entry: Cc1nc(-c2ccc(-c3ccc(C(=O)N4CCc5cc6c(cc54)C4(CCN(C)CC4)CO6)cc3)c(C)c2)no1
Ans: HIGH

Q: Now the same for C=CC(=O)Nc1ccc2ncnc(Nc3ccc(OCc4cccc(F)c4)c(Cl)c3)c2c1.Cc1ccc(S(=O)(=O)O)cc1
Ans: LOW

Q: Now the same for CN(C)CC#Cc1ccc(OCCCc2sc(N3CCc4cccc(C(=O)Nc5nc6ccccc6s5)c4C3)nc2C(=O)O)c(F)c1
Ans: LOW

Q: Now the same for CN(C)C(=O)N[C@H]1CC[C@H](CCN2CCN(c3cccc(Cl)c3Cl)CC2)CC1.Cl [CARIPRAZINE HYDROCHLORIDE]
Ans: HIGH

Q: Now the same for C=CC(=O)Nc1cccc(C(=O)Nc2ccc(Nc3cc(-c4[nH]c(SC)nc4C)ccn3)cc2)c1
Ans: MEDIUM

Q: Now the same for CNc1nc(NCc2ccc(NS(C)(=O)=O)cc2Cl)cc(-c2ccccn2)n1
Ans: MEDIUM

###

System: HEK-293T
ASSAY METHOD TEXT: Multiplex assay against HEK293T
Format: toxicity, cell-based
ASSAY CONDITIONS: human, 48 h, 10 µM, compound concentration 10 uM, replicate 2
Please respond with Satisfied when measured Population Mitotic Cells (%) is strictly beneath 30%, and with Not satisfied in all other cases.

Would you please look over these solved cases?
CCOCCn1cc(C(=O)Nc2ccc(-n3nc(-c4cccnc4)cc3C(F)(F)F)cn2)ccc1=O [BI 1935]: Not satisfied
COc1cc2nccc(Oc3ccc(NC(=O)Nc4cc(C)on4)c(Cl)c3)c2cc1OC.O: Satisfied
CC(C)(O)CNc1ncc(-c2ccnc(Nc3ccnc(Cl)c3)n2)c(CC2CC2)n1: Not satisfied
OC1(c2ccc(Cl)cc2)CCN(Cc2c[nH]c3ccccc23)CC1: Satisfied

Shift focus to the following entry.
Q: Would you kindly verify if Population Mitotic Cells (%) of C[C@@]1(C(=O)Nc2ccc(F)nc2)CCCN1c1nc(Nc2cc(C3CC3)n[nH]2)c2cccn2n1 [BMS-754807] is strictly less than 30%?
Ans: Satisfied

###

System: Fibroblast
ASSAY METHOD TEXT: Multiplex assay against human fibroblast
Type: toxicity, cell-based
ASSAY CONDITIONS: 12 h, 10 µM, compound concentration 10 uM, replicate 1
QUANTITY MEASURED: Population Pyknosed Nuclei (%)
Entry rule: numbers only, all in %.

Q: For Cc1nc(-c2ccc(-c3ccc(C(=O)N4CCc5cc6c(cc54)C4(CCN(C)CC4)CO6)cc3)c(C)c2)no1 [SB-224289] , what is its reported Population Pyknosed Nuclei (%)?
Ans: 24

Q: Now the same for OC1(c2ccc(Cl)cc2)CCN(Cc2c[nH]c3ccccc23)CC1
Ans: 23

Q: Now the same for Cn1cc(-c2[nH]c3cc(NC(=O)[C@H](N)C4CCCCC4)cc4c3c2C=NNC4=O)cn1
Ans: 13

Q: Now the same for CC[C@H](C)C(=O)O[C@H]1C[C@@H](C)C=C2C=C[C@H](C)[C@H](CC[C@@H]3C[C@@H](O)CC(=O)O3)[C@H]21 [LOVASTATIN]
Ans: 22

###

Test system: Fibroblast
ASSAY METHOD TEXT: Multiplex assay against human fibroblast
Assay type: toxicity, cell-based
ASSAY CONDITIONS: 48 h, 1 µM, compound concentration 1 uM, replicate 2
QUANTITY MEASURED: Population Apoptotic (%)
Entry rule: numbers only, all in %.

CN1CCCC(n2nc(Cc3ccc(Cl)cc3)c3ccccc3c2=O)CC1.Cl (stereo not drawn) [AZELASTINE HYDROCHLORIDE]: 75
CN1CCN(CCOc2cc(OC3CCOCC3)c3c(Nc4c(Cl)ccc5c4OCO5)ncnc3c2)CC1: 66
COc1ncc(-c2ccc3nccc(-c4ccnnc4)c3c2)cc1NS(=O)(=O)c1ccc(F)cc1F: 0
C[C@@H](NCCCc1cccc(C(F)(F)F)c1)c1cccc2ccccc12.Cl [CINACALCET HYDROCHLORIDE]: 66
Cn1cc(-c2[nH]c3cc(NC(=O)[C@H](N)C4CCCCC4)cc4c3c2C=NNC4=O)cn1: 0

Q: For C=CC(=O)Nc1cccc(C(=O)Nc2ccc(Nc3cc(-c4[nH]c(SC)nc4C)ccn3)cc2)c1 , what is its reported Population Apoptotic (%)?
Ans: 100

Q: Now the same for COc1cccc([C@@H](C)NCCCc2ccccc2Cl)c1.Cl [TECALCET HYDROCHLORIDE]
Ans: 0

Q: Now the same for CC(C)(O)CNc1ncc(-c2ccnc(Nc3ccnc(Cl)c3)n2)c(CC2CC2)n1
Ans: 50

###

Entries and their Population Hoechst High Intensity Objects (%)
Test system: U2OS
ASSAY METHOD TEXT: Multiplex assay against U2OS
Assay type: toxicity, cell-based
ASSAY CONDITIONS: human, 12 h, 10 µM, compound concentration 10 uM, replicate 1
Entry rule: numbers only, all in %.

Example results:
CN(C)C(=O)/C(C#N)=C/c1ccc(-c2nc3cnc4[nH]ccc4c3n2C2CCCCC2)o1: 49
CN1CCN(c2ccc(OC(F)(F)F)c(Nc3ncc4c(n3)-c3c(c(C(N)=O)nn3CCO)CC4)c2)CC1: 6
CNc1nc(NCc2ccc(NS(C)(=O)=O)cc2Cl)cc(-c2ccccn2)n1: 10
COc1cccc([C@@H](C)NCCCc2ccccc2Cl)c1.Cl [TECALCET HYDROCHLORIDE]: 8
Cc1[nH]c(/C=C2\C(=O)Nc3ccc(S(=O)(=O)N(C)c4cccc(Cl)c4)cc32)c(C)c1C(=O)N1CCN(C)CC1: 8
COc1ccc(Oc2cc(NCCC(F)(F)F)c3ncc(-c4ccc(C(=O)NC5CC5)c(C)c4)n3n2)c(F)c1F: 4
COc1cc(-n2cnc3cc(-c4ccc(Cl)cc4)sc3c2=O)ccc1OCCN1CCCC1: 10

Q: For C=CC(=O)Nc1cc2c(Nc3ccc(F)c(Cl)c3)ncnc2cc1OCCCN1CCOCC1.Cl.Cl [CANERTINIB DIHYDROCHLORIDE] , what is its reported Population Hoechst High Intensity Objects (%)?
Ans: 2

###

Entries and their Population Pyknosed Nuclei (%)
System: U2OS
ASSAY METHOD TEXT: Multiplex assay against U2OS
Format: toxicity, cell-based
ASSAY CONDITIONS: human, 12 h, 1 µM, compound concentration 1 uM, replicate 2
Entry rule: numbers only, all in %.

CN(C)C(=O)/C(C#N)=C/c1ccc(-c2nc3cnc4[nH]ccc4c3n2C2CCCCC2)o1: 7
CN1CCN(CCOc2cc(OC3CCOCC3)c3c(Nc4c(Cl)ccc5c4OCO5)ncnc3c2)CC1: 18
Cc1c(-c2ccc(O)cc2)n(Cc2ccc(OCCN3CCCCCC3)cc2)c2ccc(O)cc12: 4
CN1CCCC(n2nc(Cc3ccc(Cl)cc3)c3ccccc3c2=O)CC1.Cl (configuration not stated) [AZELASTINE HYDROCHLORIDE]: 8
Cc1cc(C)cc(-c2cnc3cc(Cl)c(-c4cccc(O)c4)cc3c2OCCCN)c1: 16
OC1(c2ccc(Cl)cc2)CCN(Cc2c[nH]c3ccccc23)CC1: 9
CN(C)CC#Cc1ccc(OCCCc2sc(N3CCc4cccc(C(=O)Nc5nc6ccccc6s5)c4C3)nc2C(=O)O)c(F)c1: 7
NC(=O)Nc1cc(-c2cccc(F)c2)sc1C(=O)N[C@H]1CCCNC1: 9

Q: For Cc1nc(-c2ccc(-c3ccc(C(=O)N4CCc5cc6c(cc54)C4(CCN(C)CC4)CO6)cc3)c(C)c2)no1 , what is its reported Population Pyknosed Nuclei (%)?
Ans: 14

Q: Now the same for Cc1nc(Nc2n[nH]c3c2CN(C(=O)N[C@H](CN(C)C)c2ccccc2)C3(C)C)c2sccc2n1
Ans: 10

Q: Now the same for CNCc1ccc(-c2cc(-c3nc(-c4ccc(S(=O)(=O)C(C)C)cc4)cnc3N)on2)cc1
Ans: 48

Q: Now the same for Cc1[nH]c(/C=C2\C(=O)Nc3ccc(S(=O)(=O)N(C)c4cccc(Cl)c4)cc32)c(C)c1C(=O)N1CCN(C)CC1
Ans: 6

Q: Now the same for C[C@@H](NCCCc1cccc(C(F)(F)F)c1)c1cccc2ccccc12.Cl [CINACALCET HYDROCHLORIDE]
Ans: 12

Q: Now the same for Cc1nc(-c2cn3c(n2)-c2ccc(-c4cnn(C(C)(C)C(N)=O)c4)cc2OCC3)n(C(C)C)n1
Ans: 9

Q: Now the same for Cn1cc(-c2[nH]c3cc(NC(=O)[C@H](N)C4CCCCC4)cc4c3c2C=NNC4=O)cn1
Ans: 13

Q: Now the same for CC[C@H](C)C(=O)O[C@H]1C[C@@H](C)C=C2C=C[C@H](C)[C@H](CC[C@@H]3C[C@@H](O)CC(=O)O3)[C@H]21
Ans: 8

Q: Now the same for C[C@@]1(C(=O)Nc2ccc(F)nc2)CCCN1c1nc(Nc2cc(C3CC3)n[nH]2)c2cccn2n1
Ans: 7

Q: Now the same for C=CC(=O)Nc1cccc(C(=O)Nc2ccc(Nc3cc(-c4[nH]c(SC)nc4C)ccn3)cc2)c1
Ans: 2
